Biological target: T1, AnkB_MBD R1 charge reversal mutant ('EAAE') (human, UniProt Q01484-2 28-827, 37RAAR40 to 37EAAE40)
T1 sequence: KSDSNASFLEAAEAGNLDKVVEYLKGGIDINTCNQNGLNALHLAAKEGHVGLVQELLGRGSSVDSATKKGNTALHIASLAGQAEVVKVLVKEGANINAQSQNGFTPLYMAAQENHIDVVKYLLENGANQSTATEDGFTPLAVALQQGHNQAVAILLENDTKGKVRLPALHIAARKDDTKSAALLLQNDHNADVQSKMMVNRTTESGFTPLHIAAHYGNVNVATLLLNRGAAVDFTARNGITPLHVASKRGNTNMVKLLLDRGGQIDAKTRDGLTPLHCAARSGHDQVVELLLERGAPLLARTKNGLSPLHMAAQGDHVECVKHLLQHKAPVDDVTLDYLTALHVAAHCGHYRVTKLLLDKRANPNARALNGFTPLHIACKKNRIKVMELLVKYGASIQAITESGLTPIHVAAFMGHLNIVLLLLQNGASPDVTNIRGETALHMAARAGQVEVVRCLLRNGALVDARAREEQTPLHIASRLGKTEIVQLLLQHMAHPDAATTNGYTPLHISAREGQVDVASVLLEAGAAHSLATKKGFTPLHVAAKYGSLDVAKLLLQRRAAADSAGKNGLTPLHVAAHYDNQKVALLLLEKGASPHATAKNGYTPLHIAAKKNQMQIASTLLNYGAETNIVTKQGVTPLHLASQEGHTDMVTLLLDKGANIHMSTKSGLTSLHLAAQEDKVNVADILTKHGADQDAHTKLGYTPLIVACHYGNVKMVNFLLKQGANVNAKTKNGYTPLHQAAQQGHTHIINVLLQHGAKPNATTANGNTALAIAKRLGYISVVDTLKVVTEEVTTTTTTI
Test: FP
Measured Attribute: Kd (µM)
One number for each entry, in µM.

[ask] Read off the recorded Kd for HPPIVSEEDISVG [AnkB_AI-a peptide (aa 1623–1635)]
[reply] 43.8
